# target-desc: BRD2 (His-Brd2(60-472)) (Homo sapiens (Human), UniProt P25440)
# Sequence (P25440 60-472, species assumed): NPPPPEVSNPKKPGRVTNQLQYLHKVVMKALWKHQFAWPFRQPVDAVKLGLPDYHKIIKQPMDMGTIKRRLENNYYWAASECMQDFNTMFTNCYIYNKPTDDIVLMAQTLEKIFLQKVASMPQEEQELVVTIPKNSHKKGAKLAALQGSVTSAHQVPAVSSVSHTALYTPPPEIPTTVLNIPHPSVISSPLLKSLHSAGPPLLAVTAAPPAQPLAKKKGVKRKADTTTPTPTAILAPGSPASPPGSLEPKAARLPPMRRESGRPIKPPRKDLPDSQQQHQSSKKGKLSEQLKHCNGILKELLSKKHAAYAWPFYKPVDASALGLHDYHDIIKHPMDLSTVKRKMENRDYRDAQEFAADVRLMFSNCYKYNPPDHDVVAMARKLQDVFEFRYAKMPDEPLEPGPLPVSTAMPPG
IC50 for assorted compounds
measured-attribute: IC50 (nM)

COc1ncccc1-c1nn(C)c2c1C(=O)N(c1cc(C)c(=O)n(C)c1)[C@@H]2c1ccc(Cl)cc1 [Example 16]
48.5
COc1ncc(-n2nc(C)c3c2C(c2ccc(Cl)cc2)N(c2cc(C)c(=O)n(C)c2)C3=O)cn1 (centres unmarked) [Example 21a]
63
COc1ncc(-n2nc3c(c2C)C(=O)N(c2cc(C)c(=O)n(C)c2)C3c2ccc(Cl)cc2)cn1 (centres unmarked) [Example 21b]
100
COCCn1nc(C2CC2)c2c1C(c1ccc(Cl)cc1)N(c1cc(C)c(=O)n(C)c1)C2=O (centres unmarked) [Example 4]
15
COc1ncc(-n2nc3c(c2C)C(=O)N(c2cc(C)c(=O)n(C)c2)C3c2ccc(Cl)cc2)c(OC)n1 (centres unmarked) [Example 14]
94
